Experiment: Metabolic stability in CD-1 mouse hepatocytes assessed as parent compound remaining at 5 uM measured after 3 hrs by LC-MS analysis
Type: ADME, cell-based, Hepatocyte
Conditions: read-out: Stability
readout.kind: remaining at 3 h, 5 µM
# do not omit the unit; it follows the number

Given the entry Nc1cc(C(F)F)c(-c2nc(C3CCOCC3)nc(N3C4CCC3COC4)n2)cn1 , report its measured remaining at 3 h, 5 µM.
74.5%

###

Assay: Metabolic stability in Beagle dog hepatocytes assessed as parent compound remaining at 5 uM measured after 3 hrs by LC-MS analysis
Format: ADME, cell-based, Canis lupus familiaris, Hepatocyte
Conditions: read-out: Stability
readout.kind: remaining at 3 h, 5 µM (%)
Kindly provide the numeric value in % only, without the unit symbol.

Given the entry Nc1cc(C(F)F)c(-c2nc(C3CCOCC3)nc(N3C4CCC3COC4)n2)cn1 , report its measured remaining at 3 h, 5 µM.
92.9
